// provenance: PubChem BioAssay (NCATS)

assay: Quantitative High-Throughput drug screen in 47 multiple myeloma cell lines against the NCATS MIPE library collection: Delta47_JCRB cell viability assay (AID 1918925; note: nearly all actives have a fitted effect of over 45% in size); details: Delta47 myeloma viability, CellTiter-Glo ATP, 48 h; series mostly up to 45.8 µM
Results filed as inconclusive are left out. Calls of active or inactive are those of the source. Calls come from the whole dose curve; as a rule, active = well fitted cell-killing curve with a large enough effect; inconclusive = small, poorly fitted or top-dose-only effect, or effect the other way; inactive = no such curve, though single readings can be large or run the other way.
Outcomes: 1 (active), 0 (inactive)

COMPOUND	CLASS NAME
O=C(c1cncc(Br)c1)N1CCC(N2CCCC2)CC1	0
N#CCNC(=O)c1ccc(-c2ccnc(Nc3ccc(N4CCOCC4)cc3)n2)cc1	1
Cc1c(C)n(Cc2ccc(-c3ccccc3C(=O)O)cc2)c2ccc(C(=O)N[C@@H](C)c3ccc([N+](=O)[O-])cc3)cc12	1
O=C(CCCCCCC(=O)Nc1ccc([C@H]2O[C@@H](CSc3nc(-c4ccccc4)c(-c4ccccc4)o3)C[C@@H](c3ccc(CO)cc3)O2)cc1)NO	1
Nc1ncnc2c1c(-c1cnc3[nH]ccc3c1)nn2C1CCCC1	1
CCC1=C[C@@H]2CN(C1)Cc1c([nH]c3ccccc13)[C@@](C(=O)OC)(c1cc3c(cc1OC)N(C)[C@@H]1[C@@](O)(C(=O)OC)[C@H](OC(C)=O)[C@]4(CC)C=CCN5CC[C@]31[C@@H]54)C2	1
CCCn1c(=O)c2[nH]c(-c3cnn(Cc4cccc(C(F)(F)F)c4)c3)nc2n(CC)c1=O	0
COc1ccc(CC2SC(=O)NC2=O)cc1C(=O)NCc1ccc(C(F)(F)F)cc1 (configuration not stated)	0
COc1ccc2c(OCc3nnc4ccc(-c5ccccc5)nn34)ccnc2c1	0
CC[C@@H]1C(=O)N(C)c2cnc(Nc3ccc(C(=O)NC4CCC(N5CCN(CC6CC6)CC5)CC4)cc3OC)nc2N1C(C)C (some centres not stated)	1
C=CCn1c(=O)c2cnc(Nc3ccc(N4CCN(C)CC4)cc3)nc2n1-c1cccc(C(C)(C)O)n1	1
Cn1cncc1[C@@](N)(c1ccc(Cl)cc1)c1ccc2c(c1)c(-c1cccc(Cl)c1)cc(=O)n2C	1
CC(C)c1nn(-c2c(Cl)cccc2Cl)c2nc(Cc3ccc(OCCO)cc3)[nH]c(=O)c12	1
CC1(C)OC2=C(C(=O)c3ccccc3C2=O)[C@H](NCc2ccccc2)[C@H]1O	1
O=C(O)Cn1nnc(-c2cc(N3CCC(Oc4cc(F)ccc4Br)CC3)no2)n1	0
CC1(O)CC(c2nc(-c3ccc4ccc(-c5ccccc5)nc4c3)c3c(N)nccn23)C1 (configuration not stated)	1
CC(C)c1cnn2c(NCc3ccccc3)cc(N[C@@H](CO)[C@H](O)CO)nc12	1
